# TEST TARGET: recombinant human PAD4 (human, UniProt Q9UM07 1-663)
# Sequence (Q9UM07 whole entry): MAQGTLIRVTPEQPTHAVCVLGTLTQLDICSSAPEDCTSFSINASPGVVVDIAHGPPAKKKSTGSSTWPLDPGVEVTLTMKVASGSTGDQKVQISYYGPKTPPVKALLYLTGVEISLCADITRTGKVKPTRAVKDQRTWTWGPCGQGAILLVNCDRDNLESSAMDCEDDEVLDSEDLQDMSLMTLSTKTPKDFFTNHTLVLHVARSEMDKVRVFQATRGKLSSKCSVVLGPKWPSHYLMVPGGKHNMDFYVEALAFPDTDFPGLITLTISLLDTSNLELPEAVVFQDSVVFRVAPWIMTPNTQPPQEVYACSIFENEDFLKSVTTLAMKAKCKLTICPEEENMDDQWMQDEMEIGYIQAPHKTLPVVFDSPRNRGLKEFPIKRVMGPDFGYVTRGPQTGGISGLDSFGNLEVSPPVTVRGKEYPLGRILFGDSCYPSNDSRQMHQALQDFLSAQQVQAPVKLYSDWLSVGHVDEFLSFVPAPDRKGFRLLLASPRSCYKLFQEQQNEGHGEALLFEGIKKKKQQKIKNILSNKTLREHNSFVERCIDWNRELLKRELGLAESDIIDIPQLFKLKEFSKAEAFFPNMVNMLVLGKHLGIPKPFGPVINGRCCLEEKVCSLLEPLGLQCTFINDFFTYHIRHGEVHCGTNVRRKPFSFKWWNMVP
# ASSAY NAME: cell-based or functional assay
EXPERIMENTAL ENDPOINT: IC50 (average), PAD4 citrullination of peptide …, RapidFire MS (nM)
The answer is to be given in nM; state only the numeric part.

Reference set, count: 4
hz13-9 (antibody, V domains shown, light constant region not tied to this antibody) VH: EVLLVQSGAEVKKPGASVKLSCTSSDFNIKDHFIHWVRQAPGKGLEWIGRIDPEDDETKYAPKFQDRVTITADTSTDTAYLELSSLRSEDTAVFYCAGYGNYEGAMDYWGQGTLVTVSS VL: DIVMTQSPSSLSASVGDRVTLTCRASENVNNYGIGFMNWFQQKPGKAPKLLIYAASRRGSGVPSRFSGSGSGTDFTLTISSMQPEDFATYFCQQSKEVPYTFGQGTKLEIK | 76
clone 13 (mAb13) (antibody, V domains shown, Murine anti-human PAD4 antibody; also called murine anti-human clone 13 antibody) VH: EVLLQQSGAELVKPGASVRLSCTSSDFNIKDHFIHWVKQRTEQGLEWIGRIDPEDDETKYAPKFQDKVTITADTSSNTAYLQLSSLTSEDTAVFYCAGYGNYEGAMDYWGQGTSVTVSS VL: DIVLTQSPTSLGVSPGQRATLSCRASENVNNYGIGFMNWFQQKPGQPPKLLIYAASRRGSGVPARFSGSGSGTDFSLNIHPMEEDDTAMYFCQQSKEVPYTFGGGTNLEIR | 30
hz13-3 (antibody, V domains shown, light constant region not tied to this antibody) VH: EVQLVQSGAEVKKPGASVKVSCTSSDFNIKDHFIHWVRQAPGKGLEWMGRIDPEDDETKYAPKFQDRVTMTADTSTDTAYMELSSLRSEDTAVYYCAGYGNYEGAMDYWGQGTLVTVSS VL: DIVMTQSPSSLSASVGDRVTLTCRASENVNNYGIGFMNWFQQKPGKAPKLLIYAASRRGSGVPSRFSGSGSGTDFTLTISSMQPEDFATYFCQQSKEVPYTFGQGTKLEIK | 23.3
hz20-2 (antibody, IgG1, V domains shown, also called clone 20-based hz20-2 antibody) VH: QVQLVQSGAEVKKPGASVKVSCKASGYTFTNYGISWVRQAPGQGLEWMGEIYPRSGNTYHNEKFKDRVTMTTDTSTSTAYMELRSLRSDDTAVYYCARSMITTRYWYFDVWGQGTLVTVSS VL: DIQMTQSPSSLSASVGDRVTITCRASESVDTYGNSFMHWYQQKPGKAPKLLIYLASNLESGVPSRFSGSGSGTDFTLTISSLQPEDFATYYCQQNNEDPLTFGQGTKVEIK | 73

Could you now look at the following binder, please?
Q: Consider the binder hz13-11 (antibody, V domains shown, light constant region not tied to this antibody) VH: EVQLVQSGAEVKKPGATVKISCTSSDFNIKDHFIHWVQQAPGKGLEWMGRIDPEDDETKYAPKFQDRVTITADTSTDTAYMELSSLRSEDTAVYYCAGYGNYEGAMDYWGQGTTVTVSS VL: DVVMTQSPLSLPVTLGQPASISCRASENVNNYGIGFMNWFQQRPGQSPRRLIYAASRRGSGVPDRFSGSGSGTDFTLKISRVEAEDVGVYYCQQSKEVPYTFGGGTKVEIK and give its measured IC50 (average), PAD4 citrullination of peptide …, RapidFire MS.
A: 88.7

Where do the numbers come from? From patent US20240132622A1.
